Reference source for all entries: patent US20210139589A1

Target: T1, human VISTA expressed on the cell surface (HEK293 cells transfected with human VISTA cDNA); native on human … (human, UniProt Q9H7M9 33-311)
T1 construct: whole, on cells; also called PD-1H
T1 sequence (looked up): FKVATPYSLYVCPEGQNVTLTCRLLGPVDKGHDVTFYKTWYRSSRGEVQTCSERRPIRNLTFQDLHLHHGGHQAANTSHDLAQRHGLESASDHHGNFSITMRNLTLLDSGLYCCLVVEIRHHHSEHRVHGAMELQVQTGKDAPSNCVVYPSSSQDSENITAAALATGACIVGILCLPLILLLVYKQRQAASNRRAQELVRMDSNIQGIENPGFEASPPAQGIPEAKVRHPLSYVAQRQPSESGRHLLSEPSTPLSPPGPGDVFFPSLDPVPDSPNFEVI
Assay: flow cytometry on HEK293 cells transfected with human VISTA, detection with anti-human Ig; EC50 table under the graph
Method: In order to examine the ability of the 7 humanized anti-VISTA antibodies to bind to cell surface expressed VISTA, HEK293 cells were transfected with human VISTA cDNA for 24 hours using Fugene 6 transfection reagent. Cells were harvested by trypsinization, re-suspended in FACS buffer and plated in 96-well plates. […] Antibodies were detected using anti-human Ig antibodies and binding was assessed on the MACSQuant flow cytometer (FIG. 5).
quantity kind: pEC50
pEC50 field: float, defined as -log10 of concentration (mol/L).

[
  {
    "binder": "humanized anti-VISTA antibody 29G7-HZD2 (antibody, human IgG1, kappa, V domains shown, kappa light chain) VH: EVQLVESGGGLVQPGGSLRLSCAASGFSLSSYAMGWVRQAPGKGLEWVGIIIVSGNIYYASWAKGRFTISRDNSKNTLYLQMNSLRAEDTAVYYCARGDGYTYGLWGQGTLVTVSS VL: DIQMTQSPSTLSASVGDRVTITCQASQSVYSRYLAWYQQKPGKAPKLLIYSASTLASGVPSRFSGSGSGTEFTLTISSLQPDDFATYYCQGTFYIPDYIDGFGGGTKVEIKR",
    "numeric readout": 9.33
  }
]

Please find the next binder below.
Q: Fill in reported pEC50 for this entry: humanized anti-VISTA antibody 2D12-HZD3 (antibody, human IgG1, kappa, V domains shown, kappa light chain) VH: EVQLVESGGGLVQPGGSLRLSCAASGIDLSSYAMGWVRQAPGKGLEWVGIISSSGSAFYASWAKGRFTISRDNSKNTLYLQMNSLRAEDTAVYYCARHYAGYTTPYYFNFWGQGTLVTVSS VL: AIQMTQSPSSLSASVGDRVTITCQASENIYSNLAWYQQKPGKAPKVLIYAASDLASGVPSRFSGSGSGTDFTLTISSLQPEDFATYYCQQGFSSSNVDNAFGGGTKVEIKR
Ans: 8.76
